# Target Under Test: Cyclophilin A (Homo sapiens)
# Construct: made in house
# Sequence (P62937 whole entry, species assumed): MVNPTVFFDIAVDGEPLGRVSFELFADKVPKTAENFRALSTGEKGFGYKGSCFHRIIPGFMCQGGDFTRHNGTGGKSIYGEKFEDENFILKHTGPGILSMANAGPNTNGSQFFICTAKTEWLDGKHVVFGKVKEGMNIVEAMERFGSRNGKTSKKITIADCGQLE
# Assay Text: AlphaLISA inhibition of binding of biotinylated Cyclosporin A to FLAG tagged Cyclophilin A
# Reported Conditions: test concentration not given
Where a SMILES comes first, the peptide text is derived from it. [ ]: non-standard residue; d: D form. MeBmt = C/C=C/C[C@@H](C)[C@@H](O)[C@H](NC)C(=O)O; NMeF = CN[C@@H](Cc1ccccc1)C(=O)O; NMeL = CN[C@@H](CC(C)C)C(=O)O; Tle = CC(C)(C)[C@H](N)C(=O)O; NMeV = CN[C@H](C(=O)O)C(C)C; NMeA = CN[C@@H](C)C(=O)O; Abu = CC[C@H](N)C(=O)O; Sar = CNCC(=O)O
Kindly return criterion met if reported % inhibition of CsA binding to Cyclophilin A is no lower than 90%; return criterion not met if it is lower.

Molecule | Label
C/C=C/C[C@@H](C)[C@@H](O)[C@H]1C(=O)N[C@@H](CC)C(=O)N(C)CC(=O)N(C)[C@@H](CC(C)C)C(=O)N[C@@H](CC(C)C)C(=O)N(C)[C@@H](CC(C)C)C(=O)N[C@@H](CC(C)C)C(=O)N[C@H](C)C(=O)N(C)[C@@H](CC(C)C)C(=O)N(C)[C@@H](CC(C)C)C(=O)N(C)[C@@H](C(C)C)C(=O)N1C [Compound C62] (cyclo([MeBmt][Abu][Sar][NMeL]L[NMeL]L[dA][NMeL][NMeL][NMeV])) | criterion not met
C/C=C/C[C@@H](C)[C@@H](O)[C@H]1C(=O)N[C@@H](CC)C(=O)N(C)CC(=O)N(C)[C@@H](C)C(=O)N[C@@H](C(C)C)C(=O)N(C)[C@@H](CC(C)C)C(=O)N[C@@H](CC(C)C)C(=O)N[C@H](C)C(=O)N(C)[C@@H](CC(C)C)C(=O)N(C)[C@@H](CC(C)C)C(=O)N(C)[C@@H](C(C)C)C(=O)N1C [Compound C46] (cyclo([MeBmt][Abu][Sar][NMeA]V[NMeL]L[dA][NMeL][NMeL][NMeV])) | criterion met
C/C=C/C[C@@H](C)[C@@H](O)[C@H]1C(=O)N[C@@H](CC)C(=O)N(C)CC(=O)N(C)[C@@H](Cc2ccccc2)C(=O)N[C@@H](C(C)C)C(=O)N(C)[C@@H](C)C(=O)N[C@@H](CC(C)C)C(=O)N[C@H](C)C(=O)N(C)[C@@H](CC(C)C)C(=O)N(C)[C@@H](CC(C)C)C(=O)N(C)[C@@H](C(C)C)C(=O)N1C [Compound C84] (cyclo([MeBmt][Abu][Sar][NMeF]V[NMeA]L[dA][NMeL][NMeL][NMeV])) | criterion met
C/C=C/C[C@@H](C)[C@@H](O)[C@H]1C(=O)N[C@@H](CC)C(=O)N(C)CC(=O)N(C)CC(=O)N[C@@H](CC(C)C)C(=O)N(C)[C@@H](CC(C)C)C(=O)N[C@@H](CC(C)C)C(=O)N[C@H](C)C(=O)N(C)[C@@H](CC(C)C)C(=O)N(C)[C@@H](CC(C)C)C(=O)N(C)[C@@H](C(C)C)C(=O)N1C [Compound C61] (cyclo([MeBmt][Abu][Sar][Sar]L[NMeL]L[dA][NMeL][NMeL][NMeV])) | criterion not met
C/C=C/C[C@@H](C)[C@@H](O)[C@H]1C(=O)N[C@@H](CC)C(=O)N(C)CC(=O)N(C)[C@@H](Cc2ccccc2)C(=O)N[C@@H](C(C)(C)C)C(=O)N(C)[C@@H](C)C(=O)N[C@@H](CC(C)C)C(=O)N[C@H](C)C(=O)N(C)[C@@H](CC(C)C)C(=O)N(C)[C@@H](CC(C)C)C(=O)N(C)[C@@H](C(C)C)C(=O)N1C [Compound C72] (cyclo([MeBmt][Abu][Sar][NMeF][Tle][NMeA]L[dA][NMeL][NMeL][NMeV])) | criterion met

Source: patent US20200199102A1
